Below: a set of entries, each annotated with reported IC50.
- Test system: NCI-H1963 cells
- procedure.summary: NCI-H1963 cell proliferation assay (CellTiter-Glo)
- Type: cell-based
- test.parameters: Homo sapiens, 72 h compound treatment, read-out: H1963 (nM) CTG IC50

A selection of reference data follows.
CC1(C)CCC(CN2CCN(c3ccc(C(=O)NS(=O)(=O)c4ccc(N[C@H](CCN5CCC(O)CC5)CSc5ccccc5)c(S(=O)(=O)C(F)(F)F)c4)cc3)CC2)=C(C23CC(C)(C2)C3)C1; ≤ 500 nM
CC1(C)CCC(CN2CCN(c3ccc(C(=O)NS(=O)(=O)c4ccc(NCC5CCOCC5)c([N+](=O)[O-])c4)c(Oc4cnc5[nH]ccc5c4)c3)CC2)=C(c2ccc(Cl)cc2)C1 [ABT-199, reference compound]; > 1000 nM
CC1(C)CCC(c2ccc(Cl)cc2)=C(CN2CCN(c3ccc(C(=O)NS(=O)(=O)c4ccc(N[C@H](CCN5CCOCC5)CSc5ccccc5)c(S(=O)(=O)C(F)(F)F)c4)cc3)CC2)C1 [ABT-263, reference compound]; ≤ 500 nM
CC1(C)CCC(CN2CCN(c3ccc(C(=O)NS(=O)(=O)c4ccc(N[C@H](CCN5CCOCC5)CSc5ccccc5)c([N+](=O)[O-])c4)cc3)CC2)=C(C23CC(C)(C2)C3)C1; 500 to 1000 nM
CC1(C)CCC(C23CC(C(F)F)(C2)C3)=C(CN2CCN(c3ccc(C(=O)NS(=O)(=O)c4ccc(N[C@H](CCN5CCC(O)CC5)CSc5ccccc5)c(S(=O)(=O)C(F)(F)F)c4)cc3)CC2)C1; 500 to 1000 nM
CCC12CC(C3=C(CN4CCN(c5ccc(C(=O)NS(=O)(=O)c6ccc(N[C@H](CCN7CCOCC7)CSc7ccccc7)c([N+](=O)[O-])c6)cc5)CC4)CCC(C)(C)C3)(C1)C2; > 1000 nM

Moving on to the next compound.
Just so you know, measured IC50 for CC1(C)CCC(CN2CCN(c3ccc(C(=O)NS(=O)(=O)c4ccc(N[C@H](CCN5CCC(O)C5)CSc5ccccc5)c(S(=O)(=O)C(F)(F)F)c4)cc3)CC2)=C(C23CC(C(F)F)(C2)C3)C1 (stereo partly shown) came out at 500 to 1000 nM
